- Method: self-splicing fitness, log relative to wild type (ln ratio); higher = more splicing; Tetrahymena group I intron in knt gene, E. coli kanamycin selection, DiMSum; sequences stand for … in CUCUCU…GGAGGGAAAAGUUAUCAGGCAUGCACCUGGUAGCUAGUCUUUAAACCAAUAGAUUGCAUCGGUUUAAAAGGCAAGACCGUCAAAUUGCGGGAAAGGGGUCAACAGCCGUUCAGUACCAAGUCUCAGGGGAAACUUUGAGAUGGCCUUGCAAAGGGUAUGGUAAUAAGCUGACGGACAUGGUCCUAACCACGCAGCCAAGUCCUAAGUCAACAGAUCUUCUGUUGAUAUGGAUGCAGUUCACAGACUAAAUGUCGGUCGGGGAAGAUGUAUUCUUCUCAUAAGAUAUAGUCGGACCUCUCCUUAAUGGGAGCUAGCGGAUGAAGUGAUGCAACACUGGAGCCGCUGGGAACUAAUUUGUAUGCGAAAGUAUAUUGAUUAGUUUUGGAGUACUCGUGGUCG;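 note: selection with 25 µg/mL kanamycin versus none on LB agar overnight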
- Conditions used: 30 °C
# Lookup of reported self-splicing fitness (ln) keyed by entry
Enter a number only.

Answered cases to consult:
>  <Sequence code>
UUUAAGCAAUAUUACGACGC

>  <self-splicing fitness (ln)>
-3.48

$$$$
>  <Sequence code>
GGCCAGCAAUAUUACGGCGU

>  <self-splicing fitness (ln)>
-1.59

$$$$
>  <Sequence code>
GUCCAGCAAUAUUACGUCAG

>  <self-splicing fitness (ln)>
-4.93

$$$$
>  <Sequence code>
GUCUAGCAAUAUUACGUACU

>  <self-splicing fitness (ln)>
-0.946

$$$$

Problem: Returns the measured self-splicing fitness (ln) for the input sequence. Input: GAUAAGCAAUAUUACGCCAA
Result: -1.91

Problem: Returns the measured self-splicing fitness (ln) for the input sequence. Input: AAUAAGCAAUAUUACGAAGG
Result: -3.39

Problem: Returns the measured self-splicing fitness (ln) for the input sequence. Input: GCCGAGCAAUAUUACGGAAU
Result: -1.1

Problem: Returns the measured self-splicing fitness (ln) for the input sequence. Input: ACCCAGCAAUAUUACGGAGU
Result: -3.7

Problem: Returns the measured self-splicing fitness (ln) for the input sequence. Input: CUUGAGCAAUAUUACGAGCG
Result: -2.14

Problem: Returns the measured self-splicing fitness (ln) for the input sequence. Input: CUCUAGCAAUAUUACGCAAG
Result: -3.98

Problem: Returns the measured self-splicing fitness (ln) for the input sequence. Input: UGUUAGCAAUAUUACGAGGC
Result: -3.73

Problem: Returns the measured self-splicing fitness (ln) for the input sequence. Input: GGCUAGCAAUAUUACGUCAU
Result: -1.5

Problem: Returns the measured self-splicing fitness (ln) for the input sequence. Input: CCCGAGCAAUAUUACGGACG
Result: -3.62

###

- Method: self-splicing fitness, log relative to wild type (ln ratio); higher = more splicing; Tetrahymena group I intron in knt gene, E. coli kanamycin selection, DiMSum; sequences stand for … in CUCUCU…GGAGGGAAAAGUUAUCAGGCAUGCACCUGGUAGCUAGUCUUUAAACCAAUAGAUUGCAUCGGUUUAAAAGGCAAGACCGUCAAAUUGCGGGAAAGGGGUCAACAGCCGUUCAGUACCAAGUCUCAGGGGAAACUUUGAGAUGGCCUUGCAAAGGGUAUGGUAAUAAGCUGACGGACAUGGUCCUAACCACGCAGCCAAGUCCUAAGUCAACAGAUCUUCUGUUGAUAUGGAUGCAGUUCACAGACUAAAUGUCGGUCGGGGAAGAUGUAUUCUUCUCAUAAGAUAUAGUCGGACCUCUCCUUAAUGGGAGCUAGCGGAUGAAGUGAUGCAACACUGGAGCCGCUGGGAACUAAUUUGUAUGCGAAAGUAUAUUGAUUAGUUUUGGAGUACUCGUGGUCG
- Conditions used: 30 °C
Assay endpoint: self-splicing fitness (ln)
Enter a number only.

Answered cases to consult:
>  <Sequence code>
CCGCAGCAAUAUUACGACGG

>  <self-splicing fitness (ln)>
-2.83

$$$$
>  <Sequence code>
GGGGAGCAAUAUUACGAUGA

>  <self-splicing fitness (ln)>
-2.02

$$$$
>  <Sequence code>
UAUGAGCAAUAUUACGAACA

>  <self-splicing fitness (ln)>
-2.47

$$$$
>  <Sequence code>
AGUAAGCAAUAUUACGUUGA

>  <self-splicing fitness (ln)>
-3.1

$$$$
>  <Sequence code>
CAUUAGCAAUAUUACGCGUU

>  <self-splicing fitness (ln)>
-2.44

$$$$
>  <Sequence code>
AGGUAGCAAUAUUACGUUGG

>  <self-splicing fitness (ln)>
-3.81

$$$$
>  <Sequence code>
CUCUAGCAAUAUUACGUAAC

>  <self-splicing fitness (ln)>
-3.47

$$$$
>  <Sequence code>
CGAUAGCAAUAUUACGUUCG

>  <self-splicing fitness (ln)>
-3.06

$$$$

Problem: Returns the measured self-splicing fitness (ln) for the input sequence. Input: GCCGAGCAAUAUUACGGAGU
Result: -2.42

Problem: Returns the measured self-splicing fitness (ln) for the input sequence. Input: GGCCAGCAAUAUUACGGAUG
Result: -0.5

Problem: Returns the measured self-splicing fitness (ln) for the input sequence. Input: AACCAGCAAUAUUACGCCUU
Result: -0.506

Problem: Returns the measured self-splicing fitness (ln) for the input sequence. Input: GGUCAGCAAUAUUACGGCUG
Result: -0.728

Problem: Returns the measured self-splicing fitness (ln) for the input sequence. Input: GCGAAGCAAUAUUACGUAAG
Result: -2.04

Problem: Returns the measured self-splicing fitness (ln) for the input sequence. Input: CUGUAGCAAUAUUACGACAG
Result: -4.61

Problem: Returns the measured self-splicing fitness (ln) for the input sequence. Input: UAUAAGCAAUAUUACGAAAG
Result: -1.17

Problem: Returns the measured self-splicing fitness (ln) for the input sequence. Input: GAAUAGCAAUAUUACGCUUA
Result: -1.5

Problem: Returns the measured self-splicing fitness (ln) for the input sequence. Input: CCCCAGCAAUAUUACGAAGU
Result: -3.84

Problem: Returns the measured self-splicing fitness (ln) for the input sequence. Input: GAUCAGCAAUAUUACGGUGG
Result: -1.36

Problem: Returns the measured self-splicing fitness (ln) for the input sequence. Input: GCCCAGCAAUAUUACGGCCC
Result: -1.09

Problem: Returns the measured self-splicing fitness (ln) for the input sequence. Input: ACAGAGCAAUAUUACGAGAU
Result: -3.23

Problem: Returns the measured self-splicing fitness (ln) for the input sequence. Input: UGUAAGCAAUAUUACGCACU
Result: -0.554

Problem: Returns the measured self-splicing fitness (ln) for the input sequence. Input: CCGAAGCAAUAUUACGGGUA
Result: -4.26

Problem: Returns the measured self-splicing fitness (ln) for the input sequence. Input: UAAGAGCAAUAUUACGGUGG
Result: -4.17
